I'd appreciate it if you could supply anti-target count values for the items below.
Assay: competitive ABPP of pPAFAH versus proteome hydrolases – biochemical, gel-based, FP-Rh fluorescence, complex proteome, SAR compounds, selectivity assay for pPAFAH inhibitor project, SAR follow-up (AID 588774)
Conditions: MAGL, anti-targets inhibited, at 10 µM

given smiles	assay result
Cc1cc(N2CCN(C(=O)Oc3noc4cc(Cl)ccc34)CC2)c2ccccc2n1	4

Would you be so kind as to report anti-target count for each listed record?
1. Cc1cc(N2CCN(C(=O)Oc3ccc(C4CCCCC4)cc3)CC2)c2ccccc2n1
2. Cc1cc(N2CCN(C(=O)Oc3ccc(C4CCCC4)cc3)CC2)c2ccccc2n1
3. COc1ccc(-c2cnn(C(=O)N3CCN(c4cc(C)nc5ccccc45)CC3)n2)cc1
4. Cc1cc(N2CCN(C(=O)n3ncc(-c4ccccc4)n3)CC2)c2ccccc2n1
5. Cc1cc(N2CCN(C(=O)Oc3ccc(-c4ccc(Br)cc4)cc3)CC2)c2ccccc2n1
6. Cc1cc(N2CCN(C(=O)Oc3ccc(C(F)(F)F)cc3)CC2)c2ccccc2n1

Reply:
1. 0
2. 0
3. 8
4. 9
5. 0
6. 1

Would you be so kind as to report anti-target count for each listed record?
1. O=C(Oc1noc2cc(Cl)ccc12)N1CCCCC1
2. Cc1cc(N2CCN(C(=O)n3ncc(-c4ccc(OC(F)(F)F)cc4)n3)CC2)c2ccccc2n1
3. O=C(N1CCOCC1)n1oc2cc(Cl)ccc2c1=O
4. O=C(Oc1noc2cc(Cl)ccc12)N1CCOCC1
5. Cc1cc(N2CCN(C(=O)Oc3ccc(-c4ccccc4)cc3)CC2)c2ccccc2n1
6. Cc1cc(N2CCN(C(=O)n3oc4cc(Cl)ccc4c3=O)CC2)c2ccccc2n1
7. Cc1cc(N2CCN(C(=O)Oc3ccc([N+](=O)[O-])cc3)CC2)c2ccccc2n1

Reply:
2
9
6
3
0
3
2

Would you be so kind as to report anti-target count for each listed record?
1. Cc1cc(N2CCN(C(=O)Oc3ccc(-n4cccc4)cc3)CC2)c2ccccc2n1
2. Cc1cc(N2CCN(C(=O)n3ncc(-c4ccc([N+](=O)[O-])cc4)n3)CC2)c2ccccc2n1
3. Cc1cc(N2CCN(C(=O)n3ncc(-c4ccc(Cl)c(Cl)c4)n3)CC2)c2ccccc2n1

Reply:
1: 0; 2: 9; 3: 8

###

Tested on: ABHD3
Assay: competitive ABPP of pPAFAH versus proteome hydrolases – biochemical, gel-based, FP-Rh fluorescence, complex proteome, SAR compounds, selectivity assay for pPAFAH inhibitor project, SAR follow-up (AID 588774);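 for inhibition: 0% = DMSO-only band intensity and 100% = blank gel background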
Conditions: inhibition, at 1 µM, stronger effect = higher value
quantity measured: inhibition (%)
Numbers only, in %.

Here are 2 molecules together with their reported answers.
given smiles	quantity measured	measure unit	assay result
Cc1cc(N2CCN(C(=O)n3ncc(-c4ccc([N+](=O)[O-])cc4)n3)CC2)c2ccccc2n1	inhibition	%	94
Cc1cc(N2CCN(C(=O)n3ncc(-c4ccc(Cl)c(Cl)c4)n3)CC2)c2ccccc2n1	inhibition	%	96

Would you be so kind as to report inhibition for each listed record?
1. Cc1cc(N2CCN(C(=O)n3ncc(-c4ccc(OC(F)(F)F)cc4)n3)CC2)c2ccccc2n1
2. COc1ccc(-c2cnn(C(=O)N3CCN(c4cc(C)nc5ccccc45)CC3)n2)cc1
3. Cc1cc(N2CCN(C(=O)n3ncc(-c4ccccc4)n3)CC2)c2ccccc2n1

Reply:
[92, 86, 85]
